From: patent US20220339289A1

- experimental target: T1, Recombinant biotinylated human P-Selectin protein (human, UniProt P16109 42-771, limits assumed, biotinylated (site not stated))
- T1 sequence (looked up): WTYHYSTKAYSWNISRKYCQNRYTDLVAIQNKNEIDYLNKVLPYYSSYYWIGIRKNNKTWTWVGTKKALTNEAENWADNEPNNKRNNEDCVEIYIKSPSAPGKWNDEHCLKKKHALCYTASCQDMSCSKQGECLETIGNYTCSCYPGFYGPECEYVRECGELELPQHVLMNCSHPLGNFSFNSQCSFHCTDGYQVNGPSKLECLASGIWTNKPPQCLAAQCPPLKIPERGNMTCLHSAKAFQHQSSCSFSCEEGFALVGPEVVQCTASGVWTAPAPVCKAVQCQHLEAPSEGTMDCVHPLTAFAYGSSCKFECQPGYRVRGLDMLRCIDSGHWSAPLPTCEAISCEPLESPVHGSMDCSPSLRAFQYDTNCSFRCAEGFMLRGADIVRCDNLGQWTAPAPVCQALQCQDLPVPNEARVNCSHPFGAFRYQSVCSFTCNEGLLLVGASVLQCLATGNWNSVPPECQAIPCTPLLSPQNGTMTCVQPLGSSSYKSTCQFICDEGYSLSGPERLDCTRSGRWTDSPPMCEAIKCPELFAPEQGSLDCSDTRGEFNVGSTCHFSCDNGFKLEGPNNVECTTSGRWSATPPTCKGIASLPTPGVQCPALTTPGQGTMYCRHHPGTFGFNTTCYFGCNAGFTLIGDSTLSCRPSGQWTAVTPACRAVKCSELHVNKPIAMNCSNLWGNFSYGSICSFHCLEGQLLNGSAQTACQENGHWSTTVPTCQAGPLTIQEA
- experiment summary: SPR (Biacore), biotinylated human P-selectin captured on streptavidin chip, peptide as analyte
- Method: Biacore experiments were performed to determine ka (M−1s−1), kd (s−1), KD (nM) values of monomeric peptides binding to human Selectin proteins. Recombinant biotinylated human P-Selectin protein was used. For analysis of binding, either a Biacore 3000 or 5200 instrument was used with a CMS sensor chip (GE Healthcare). […]
Starred links: 1 amine or outer side, 2 acyl side, 3 side chain; linkers in the order of their positions; H or OH if unused. Positions of bridges follow the written chain, without caps; N, C: chain ends. Non-standard residues stand in square brackets, D forms with d. Primed or numbered codes have the meaning given here. No end group written: not given here. TCAZ″ = 1,1',1''-(1,4,7-triazonane-1,4,7-triyl)tris(2-chloroethan-1-one) scaffold, O=C(C[*:1])N1CCN(C(=O)C[*:2])CCN(C(=O)C[*:3])CC1; TCAZ = 1,1',1''-(1,4,7-triazonane-1,4,7-triyl)tris(2-chloroethan-1-one); TATA = O=C(CC[*:1])N1CN(C(=O)CC[*:2])CN(C(=O)CC[*:3])C1; 1Nal = N[C@@H](Cc1cccc2ccccc12)C(=O)O
So I've got a bunch of binders here, and I need their pKd values.
In simple prose, pKd is minus the logarithm base ten of a concentration in moles per litre.

Quick note, pKd for ACDADWCDVPSLPCA-NH2 (linker 2-7-14 via TCAZ″, Monomeric bicyclic peptide) [BCY11648] landed at 6.89

Quick note, pKd for ACDAD[1Nal]CDVPSLPCA-NH2 (linker 2-7-14 via TCAZ, Monomeric bicyclic peptide) [BCY12027] landed at 8.27

Quick note, pKd for Ac-CYMEWCDVTDYGC-NH2 (linker 1-6-13 via TATA, Monomeric bicyclic peptide; also called BCY09717) [BCY9717] landed at 5.12

Quick note, pKd for Ac-ACYME[1Nal]CDVTDYGCA-NH2 (linker 2-7-14 via TATA, Monomeric bicyclic peptide) [BCY11279] landed at 6.16
